assay: PK of topical ocular sodium phosphate-based Gel Drop, concentrations 1 hour after last dose; type: in vivo, Dutch-belted rabbits; conditions: Dutch-belted, rabbit, plasma, 1 mg/ml, pH 6, 1 mg/ml pH 6.0 Phos 0.05% BAK 0.005% Gly 2% PS80 0.01% Tylox 0.2%, 3x/day 5 days, read-out: [plasma]

{"Compound": "Cl.NC(=O)c1c(OCc2c(F)cc(Br)cc2F)nsc1NC(=O)NCCCCN1CCCC1 [Compound-I, hydrochloride]", "concentration at 1 h, nM": 3.49}

---

Assay: PK of topical ocular sodium phosphate-based Gel Drop, concentrations 1 hour after last dose
Format: in vivo, Dutch-belted rabbits
Details: Dutch-belted, rabbit, AH (aqueous humor), 4 mg/ml, pH 6, 4 mg/ml pH 6.0 Phos 2% BAK 0.005% Gly 2% PS80 1% Tylox 0.2%, 3x/day 5 days, read-out: Mean [AH]
From the text: The Gel Drop of Compound-I was applied to eyes of Dutch-belted rabbits.

{"Compound": "Cl.NC(=O)c1c(OCc2c(F)cc(Br)cc2F)nsc1NC(=O)NCCCCN1CCCC1 [Compound-I, hydrochloride]", "concentration at 1 h (nM)": 21.1}
